# Measurement parameters: in DMF, 303.15 K
Readout kind: solubility (mole fraction)

1. C[C@@H](O)[C@H]1C(=O)N2C(C(=O)[O-])=C(SC3Cn4cnc[n+]4C3)[C@H](C)[C@H]12 (stereo partly specified) = 8.72e-05

###

# Measurement parameters: in n-propanol, 308.15 K
Readout kind: solubility (mole fraction)

1) C[C@@H](O)[C@H]1C(=O)N2C(C(=O)[O-])=C(SC3Cn4cnc[n+]4C3)[C@H](C)[C@H]12 (stereo partly specified) = 2.7e-05

###

# Measurement parameters: in methanol, 293.15 K
Readout kind: solubility (mole fraction)

1. C[C@@H](O)[C@H]1C(=O)N2C(C(=O)[O-])=C(SC3Cn4cnc[n+]4C3)[C@H](C)[C@H]12 (stereo partly specified) = 2.59e-05
